The measurements presented in this section are drawn from ChEMBL document CHEMBL4152386.

- protocol.details: Ratio of AUC in lung to plasma of Wistar rat at 0.3 mg/kg, it administered as suspension
- Type: ADME, organism-based
- condition.set: Wistar, lung and plasma, inhaled or intranasal
readout.type: Kp

[
  {
    "chemical.structure": "Cc1ccn2nc([C@H](C)Nc3ncnc(N)c3-c3ccc(O)c(F)c3)n(-c3ccccc3)c(=O)c12",
    "endpoint.result": 207
  }
]

---

- protocol.details: Drug metabolism in rat liver microsomes assessed as disappearance of parent compound at 5 uM after 30 mins in presence of NADPH by UPLC-MS/MS analysis
- Assay type: ADME, microsome
- condition.set: read-out: Drug metabolism
readout.type: metabolised at 0.5 h, 5 µM

[
  {
    "chemical.structure": "Cc1ccn2nc([C@H](C)Nc3ncnc(N)c3-c3ccc(O)c(F)c3)n(-c3ccccc3)c(=O)c12",
    "endpoint.result": "44%"
  },
  {
    "chemical.structure": "Cc1ccn2nc([C@H](C)Nc3ncnc(N)c3-c3cc(O)cc(Cl)c3)n(-c3ccccc3)c(=O)c12",
    "endpoint.result": "54%"
  },
  {
    "chemical.structure": "Cc1ccn2nc([C@H](C)Nc3ncnc4[nH]cc(-c5ccccc5O)c34)n(-c3ccccc3)c(=O)c12",
    "endpoint.result": "72%"
  },
  {
    "chemical.structure": "Cc1ccn2nc([C@H](C)Nc3ncnc(N)c3Sc3cccc(O)c3)n(-c3ccccc3)c(=O)c12",
    "endpoint.result": "94%"
  },
  {
    "chemical.structure": "Cc1ccn2nc([C@H](C)Nc3ncnc4[nH]cc(-c5cn[nH]c5)c34)n(-c3ccccc3)c(=O)c12",
    "endpoint.result": "21%"
  },
  {
    "chemical.structure": "Cc1ccn2nc([C@H](C)Nc3ncnc(N)c3-c3cc(O)cc(F)c3)n(-c3ccccc3)c(=O)c12",
    "endpoint.result": "75%"
  },
  {
    "chemical.structure": "Cc1ccn2nc([C@H](C)Nc3ncnc4[nH]cc(-c5cc(C(F)(F)F)ccc5O)c34)n(-c3ccccc3)c(=O)c12",
    "endpoint.result": "21%"
  },
  {
    "chemical.structure": "Cc1ccn2nc([C@H](C)Nc3ncnc4[nH]cc(Sc5cccc(O)c5)c34)n(-c3ccccc3)c(=O)c12",
    "endpoint.result": "64%"
  },
  {
    "chemical.structure": "Cc1ccn2nc([C@H](C)Nc3ncnc4[nH]cc(-c5cccc(F)c5O)c34)n(-c3ccccc3)c(=O)c12",
    "endpoint.result": "27%"
  }
]
